Measured IC50 by item
Tested on: breast line MDA468
Test: In vitro cell culture growth assay (MTS), MDA468
Format: cell-based, human
Settings: Homo sapiens, 72 h, MDA468 cells, three days after drug treatment
Return type: number; implicit unit nM.

Sample records with IC50:
compound	IC50 (nM)
O=C(c1cccnc1)N1CCC(n2ncc3c(N4CCOCC4)nc(-c4cccc(O)c4)nc32)CC1	700
O=C(NCCCO)Nc1ccc(-c2nc(N3CCOCC3)c3cnn(C4CCN(Cc5ccccc5)CC4)c3n2)cc1 [Example 269]	700

Data point: O=C(NO)Nc1ccc(-c2nc(N3CCOCC3)c3cnn(C4CCN(Cc5ccccc5)CC4)c3n2)cc1 [Compound 310] ; IC50 = 1100

----------
Biological target: PI3K (Homo sapiens, UniProt P42336)
Sequence (P42336 whole entry): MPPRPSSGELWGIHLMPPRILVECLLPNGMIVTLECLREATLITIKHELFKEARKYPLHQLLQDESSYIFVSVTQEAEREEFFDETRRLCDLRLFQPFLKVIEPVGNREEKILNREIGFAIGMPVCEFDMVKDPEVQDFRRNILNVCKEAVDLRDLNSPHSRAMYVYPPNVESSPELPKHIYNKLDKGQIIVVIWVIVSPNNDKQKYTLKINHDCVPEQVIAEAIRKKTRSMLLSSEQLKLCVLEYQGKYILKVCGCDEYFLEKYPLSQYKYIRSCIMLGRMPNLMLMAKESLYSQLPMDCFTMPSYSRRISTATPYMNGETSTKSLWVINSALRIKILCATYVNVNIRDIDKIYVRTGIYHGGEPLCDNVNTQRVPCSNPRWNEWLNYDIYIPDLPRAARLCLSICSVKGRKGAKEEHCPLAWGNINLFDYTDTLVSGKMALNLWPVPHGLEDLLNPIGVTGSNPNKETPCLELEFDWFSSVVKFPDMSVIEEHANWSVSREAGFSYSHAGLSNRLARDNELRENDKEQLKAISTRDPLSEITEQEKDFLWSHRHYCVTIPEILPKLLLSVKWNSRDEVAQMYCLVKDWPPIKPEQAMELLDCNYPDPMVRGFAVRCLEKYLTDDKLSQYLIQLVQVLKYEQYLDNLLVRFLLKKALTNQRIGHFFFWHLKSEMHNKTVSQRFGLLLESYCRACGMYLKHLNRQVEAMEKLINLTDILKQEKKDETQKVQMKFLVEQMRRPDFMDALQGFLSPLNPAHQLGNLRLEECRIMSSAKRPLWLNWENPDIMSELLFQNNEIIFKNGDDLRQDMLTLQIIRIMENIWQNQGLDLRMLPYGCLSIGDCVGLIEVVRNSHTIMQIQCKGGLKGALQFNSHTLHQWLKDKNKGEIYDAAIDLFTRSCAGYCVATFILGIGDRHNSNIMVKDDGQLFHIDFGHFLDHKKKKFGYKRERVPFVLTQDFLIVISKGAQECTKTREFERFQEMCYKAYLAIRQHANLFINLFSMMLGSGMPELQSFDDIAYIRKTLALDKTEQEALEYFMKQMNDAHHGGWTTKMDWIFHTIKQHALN
Sequence (P27986 whole entry partner): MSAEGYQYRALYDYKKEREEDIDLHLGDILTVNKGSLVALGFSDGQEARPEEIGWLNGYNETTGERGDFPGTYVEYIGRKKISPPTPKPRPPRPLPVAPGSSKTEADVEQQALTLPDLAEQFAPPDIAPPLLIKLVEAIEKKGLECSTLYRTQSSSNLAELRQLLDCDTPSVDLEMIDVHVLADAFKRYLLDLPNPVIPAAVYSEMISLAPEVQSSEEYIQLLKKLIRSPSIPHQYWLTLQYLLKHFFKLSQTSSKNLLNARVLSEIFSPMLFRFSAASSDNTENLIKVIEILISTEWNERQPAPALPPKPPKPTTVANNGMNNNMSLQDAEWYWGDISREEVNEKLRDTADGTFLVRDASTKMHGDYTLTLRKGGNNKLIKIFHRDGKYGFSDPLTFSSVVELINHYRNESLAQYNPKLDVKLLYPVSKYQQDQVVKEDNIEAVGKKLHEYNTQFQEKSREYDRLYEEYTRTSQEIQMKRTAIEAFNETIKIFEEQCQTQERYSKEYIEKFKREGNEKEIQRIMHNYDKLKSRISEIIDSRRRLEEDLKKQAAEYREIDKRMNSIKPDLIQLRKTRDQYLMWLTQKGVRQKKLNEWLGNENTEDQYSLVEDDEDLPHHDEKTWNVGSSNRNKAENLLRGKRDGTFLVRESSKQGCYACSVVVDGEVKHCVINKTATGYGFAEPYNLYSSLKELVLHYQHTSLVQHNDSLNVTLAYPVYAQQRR
Experiment: Fluorescence polarization assay for PI3K;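 also: PI3K kinase reaction on PIP2 with ATP, 30-60 min, product sensed by GST-GRP with red probe in fluorescence polarization (mP), controls without enzyme and at zero time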
Assay type: biochemical
Settings: PI3Kα; read-out: PI3Kα IC50
// returns 0 (no) unless IC50 is strictly below 200 nM, in which case 1 (yes)

Worked examples, 8 compounds total:
compound	testTarget	classAssignment
CNC(=O)Nc1ccc(-c2nc(N3CCOCC3)c3cnn(C4CCN(C(=O)Nc5cccnc5)CC4)c3n2)cc1 [Compound 579]	PI3K (Homo sapiens, UniProt P42336)	1 (yes)
NNC(=O)Nc1ccc(-c2nc(N3CCOCC3)c3cnn(-c4ccccc4)c3n2)cc1 [Compound 538]	PI3K (Homo sapiens, UniProt P42336)	1 (yes)
O=C(Nc1ccccc1)Nc1ccc(-c2nc(N3CCOCC3)c3cnn(C4CCN(C(=O)c5ccccc5)CC4)c3n2)cc1 [Example 378]	PI3K (Homo sapiens, UniProt P42336)	1 (yes)
CNC(=O)Nc1cccc(-c2nc(N3CCOCC3)c3cnn(C4CCN(Cc5ccccc5)CC4)c3n2)c1 [Compound 228]	PI3K (Homo sapiens, UniProt P42336)	0 (no)
O=C(Nc1ccccc1)Nc1cc(F)c(-c2nc(N3CCOCC3)c3cnn(C4CCN(C(=O)c5cccnc5)CC4)c3n2)cc1F [Compound 713]	PI3K (Homo sapiens, UniProt P42336)	1 (yes)
CCCOC(=O)N1CCC(n2ncc3c(N4CCOCC4)nc(-c4ccc(NC(=O)NC5CC5)cc4)nc32)CC1	PI3K (Homo sapiens, UniProt P42336)	0 (no)
c1ccc(-n2ncc3c(N4CCOCC4)nc(-c4ccc5occc5c4)nc32)cc1	PI3K (Homo sapiens, UniProt P42336)	0 (no)
CNC(=O)Nc1ccc(-c2nc(N3CCOCC3)c3cnn(C4CCN(C(=O)c5cnccc5C)CC4)c3n2)cc1 [Example 419]	PI3K (Homo sapiens, UniProt P42336)	0 (no)

# evaluate next
Req: hey, is IC50 for `CN(C)CCNC(=O)c1cccc(-c2nc(N3CCOCC3)c3cnn(-c4ccccc4)c3n2)c1` lower than 200 nM or not?
Resp: 0 (no)

----------
Measured log10(IC50) by item
System: breast line MDA468
Assay: In vitro cell culture growth assay (MTS), MDA468
Format: cell-based, human
Conditions: Homo sapiens, 72 h, MDA468 cells, three days after drug treatment
Form field - Quantity: IC50; Unit: nM; Scale: log10

CCNC(=O)Nc1ccc(-c2nc(N3CCOC[C@H]3C)c3cnn(C4CCN(C(=O)OCC)CC4)c3n2)cc1 2.78

Data point: `CNC(=O)Nc1ccc(-c2nc(N3CCOCC3)c3cnn(C4CCN(S(C)(=O)=O)CC4)c3n2)cc1` ; log10(IC50) = 2.68

Data point: `CN1CCC(C(=O)Nc2ccc(-c3nc(N4CCOCC4)c4cnn(-c5ccccc5)c4n3)cc2)CC1` ; log10(IC50) = 3.58

Data point: `O=C(NCCO)Nc1ccc(-c2nc(N3CCOCC3)c3cnn(C4CCN(CC(F)(F)F)CC4)c3n2)cc1` ; log10(IC50) = 3.02

Data point: `CNC(=O)Nc1ccc(-c2nc(N3CCOCC3)c3cnn(C4CCN(C(=O)c5ccccn5)CC4)c3n2)cc1` ; log10(IC50) = 2.30
